Target chain: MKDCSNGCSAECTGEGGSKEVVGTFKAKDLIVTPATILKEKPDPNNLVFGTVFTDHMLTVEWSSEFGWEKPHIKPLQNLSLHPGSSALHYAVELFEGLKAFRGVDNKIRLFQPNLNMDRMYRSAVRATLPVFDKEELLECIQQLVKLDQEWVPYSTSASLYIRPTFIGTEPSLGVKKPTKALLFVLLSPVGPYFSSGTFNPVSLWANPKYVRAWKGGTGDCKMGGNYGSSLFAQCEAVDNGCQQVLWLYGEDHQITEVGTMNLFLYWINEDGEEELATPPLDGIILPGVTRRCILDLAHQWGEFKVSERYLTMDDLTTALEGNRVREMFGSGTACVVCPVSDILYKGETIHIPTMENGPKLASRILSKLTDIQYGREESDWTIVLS
Catalogue of IC50 readings, one per entry.

O=C(N[C@H]1CCC[C@@H](n2c(-c3ccccc3F)nc3cnc(-c4ccccc4)cc32)C1)c1ncc(Cl)s1    500 to 1000 nM
CC(C)Cc1nc2cnc(-c3ccn(C)n3)cc2n1[C@@H]1CCC[C@H](NC(=O)c2ncc(Cl)s2)[C@H]1O    < 500 nM

Recorded IC50 (molecule O=C(N[C@H]1CCC[C@@H](n2c(-c3ccccn3)nc3cc(-c4cnco4)ncc32)C1)c1ccc(Br)s1 ): > 5000 nM

Reference source for all entries: patent US20260159512A1
